MEASURED QUANTITY: melting point

# annotated cases, reported melting point shown
COMPOUND: Cc1cc(Oc2c([N+](=O)[O-])cc([N+](=O)[O-])cc2C(F)(F)F)n[nH]1
RECORDED VALUE: 145 to 147 °C
//
COMPOUND: CCOc1ccc(C2=NN(C3CCCCC3)C(=O)[C@H]3CC=CC[C@@H]23)cc1OCC (relative stereo)
RECORDED VALUE: 147 to 148 °C
//
COMPOUND: CCN(C)C(=N)N[N+](=O)[O-]
RECORDED VALUE: 124 to 125 °C
//
COMPOUND: CC(C)Sc1c(C(N)=O)n(C)c2ccc(OCc3ccccc3)cc12
RECORDED VALUE: 151 to 154 °C
//
COMPOUND: CCOC(=O)C1CCc2cc(C(=O)c3ccccc3)c(O)cc21 (stereo unspecified)
RECORDED VALUE: 83 to 84 °C
//
COMPOUND: CC(=O)NC(C)c1ccc(CN2CCN(c3ccc(F)cc3F)CC2)cc1 (stereo unspecified)
RECORDED VALUE: 109 to 111 °C
//
COMPOUND: Cc1cc(C(=O)N(C2CCCCC2)C2CCCC2)ccc1Br
RECORDED VALUE: 125 to 127 °C
//
COMPOUND: O=C(NCCN1CCOCC1)c1ccc2cc(C(=O)O)[nH]c2c1
RECORDED VALUE: 227 to 233 °C
//
COMPOUND: CC(C)(C)OC(=O)N1CCC2(C=Cc3ccccc32)CC1
RECORDED VALUE: 128 °C
//
COMPOUND: Cc1ccccc1P(=NC(=O)OCc1cccnc1)(c1ccccc1)c1ccccc1
RECORDED VALUE: 142 to 143 °C

Output measured melting point for this item: `OCc1cc(C=CCN2Cc3ccccc3C2)ccc1O`
177 to 178 °C

Output measured melting point for this item: `CN(C)C=Nc1nc(=O)n(-c2ccsc2)cc1F`
211 to 213 °C

Output measured melting point for this item: O=C(N=CN1CCCCC1)C(O)(C(=O)N=CN1CCCCC1)c1ccc(Cl)c(Cl)c1 (stereo unspecified)
195 °C

Output measured melting point for this item: `c1cn(CCOc2ccc(-c3nnn[nH]3)cc2)cn1`
196 to 197 °C

Output measured melting point for this item: `COc1cccc(OC)c1C(=O)NC1=NN=C(C(C)(C)C)CS1`
175 to 177 °C

Output measured melting point for this item: `O=C1COc2ccccc2CN1Cc1ccccc1`
95 to 97 °C

Output measured melting point for this item: `CN1CCN(c2cccc3c2C[C@H](NC(=O)c2cccc(OS(C)(=O)=O)c2)CC3)CC1`
159 to 160 °C

Output measured melting point for this item: `COc1cc(C(C)(C)C)c(OC(C)=O)c(C(C)(C)C)c1CC(C)=O`
133 °C

* * *

melting point values, listed per item

MOLECULE: NC(=O)c1c(Cl)c(-c2ccccc2)n2c1CN(C(=O)c1ccc(-c3ccccn3)s1)CC2
melting point: 232 °C
--
MOLECULE: Nc1nc(NCCO)c(Cl)nc1[N+](=O)[O-]
melting point: 196 to 197 °C
--
MOLECULE: NC(=S)c1sccc1N
melting point: 98 to 99 °C
--
MOLECULE: CCC(=O)Nc1cc(S(=O)c2ccccc2)ccc1NC(=NC(=O)OC)NC(=O)OC (stereo not drawn)
melting point: 193 to 195 °C
--
MOLECULE: COc1cc2c(cc1Nc1ncc(Cl)c(Nc3ccc(N4CCOCC4)cc3OC)n1)CCN(CC(=O)N1CCCC1)CC2
melting point: 82 to 105 °C
--
MOLECULE: CCOC(=O)c1ccc2oc3ccc(OC)cc3c(=O)c2c1
melting point: 170 to 172 °C
--
MOLECULE: CCOC(=O)C(C(=O)CBr)C1Cc2ccccc2C(c2ccccc2)N1 (stereo not drawn)
melting point: 107 to 109 °C
--
MOLECULE: C=C(c1ccc(NC(=O)OC(C)(C)C)c(C)c1)C(F)(F)F
melting point: 86 to 88 °C
--
MOLECULE: CN1[C@H]2CC[C@@H]1[C@@H](CO)[C@@H](c1ccc(F)cc1)C2
melting point: 79 to 80 °C
--
MOLECULE: CN1CCC2(CC1)C(=O)N(C)C(=O)N2c1ccccc1
melting point: 132 to 134 °C

Output measured melting point for this item: `CC(C)C[C@@H](C(=O)O)N1C(=O)[C@@H](N2C(=O)OC[C@@H]2c2ccccc2)[C@H]1CCc1ccccc1`
138 to 140 °C

Output measured melting point for this item: `OCCn1ccccc1=S`
95 to 97 °C

Output measured melting point for this item: `O=C(NCC1CCC1)NCC1CCC1`
153 to 155 °C

Output measured melting point for this item: O=C1CCC(N2C(=O)c3cccc(CNC(=O)c4ccc(Cl)c(Cl)c4)c3C2=O)C(=O)N1 (stereo not drawn)
161 to 163 °C

Output measured melting point for this item: `CS(=O)(=O)c1ccc(-c2nn3c(c2-c2ccc(F)cc2)OCCC3)cc1`
198 to 200 °C

Output measured melting point for this item: `CCCCCCCN(CCCCCSc1nc(-c2ccccc2)c(-c2ccccc2)[nH]1)C(=S)Nc1ccc(F)cc1F`
116 to 118 °C

Output measured melting point for this item: `COC(=O)c1nc(CN=[N+]=[N-])n2c1CN=C(c1ccccc1Cl)c1cc(Cl)ccc1-2`
187 to 189 °C

Output measured melting point for this item: `CC(C)(C)OC(=O)[C@@H]1CS[C@H](c2ccccc2-c2ccccc2)N1C(=O)CNC(=O)Nc1cccc(CC(=O)O)c1`
128 °C

Output measured melting point for this item: CN(C)C(CNc1c(C#N)cnn2cccc12)c1ccco1 (stereo not drawn)
107 °C

Output measured melting point for this item: `Cn1c(OC(F)F)n[nH]c1=O`
111 °C
